measured_target: T1, human EGFRvIII-hFc protein (human, UniProt P00533 25-645)
T1 construct: extracellular domain; also called immunogen A; hFc-tagged EGFRvIII protein; not shown: human IgG Fc fragment (hFc) of the pCpC vector
method_description: ELISA, EGFRvIII-hFc coated

[
  {
    "binder": "Chimeric antibody 63A10 (antibody, human IgG1, V domains shown, also called c63A10A7; chimeric antibody c63A10A7) VH: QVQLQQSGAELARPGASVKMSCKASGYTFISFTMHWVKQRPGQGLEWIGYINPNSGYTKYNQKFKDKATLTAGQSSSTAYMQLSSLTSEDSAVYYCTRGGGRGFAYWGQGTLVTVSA VL: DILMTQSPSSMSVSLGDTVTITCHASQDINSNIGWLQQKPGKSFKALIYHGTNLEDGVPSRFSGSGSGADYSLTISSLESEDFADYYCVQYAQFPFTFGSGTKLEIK",
    "OD450 nm at 0.1 nM antibody, OD450": 1.05
  },
  {
    "binder": "Chimeric antibody 7E5 (antibody, human IgG1, V domains shown, also called clone 7E5-2A9) VH: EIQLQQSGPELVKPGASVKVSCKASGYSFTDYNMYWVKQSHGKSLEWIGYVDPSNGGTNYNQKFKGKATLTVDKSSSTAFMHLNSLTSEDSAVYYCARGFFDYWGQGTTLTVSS VL: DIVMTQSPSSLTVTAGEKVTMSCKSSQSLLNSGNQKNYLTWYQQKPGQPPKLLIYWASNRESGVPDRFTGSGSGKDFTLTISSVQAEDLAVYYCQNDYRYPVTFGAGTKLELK",
    "OD450 nm at 0.1 nM antibody, OD450": 1.18
  },
  {
    "binder": "Chimeric antibody 75G7 (antibody, human IgG1, V domains shown, also called c75G7C6; chimeric antibody c75G7C6) VH: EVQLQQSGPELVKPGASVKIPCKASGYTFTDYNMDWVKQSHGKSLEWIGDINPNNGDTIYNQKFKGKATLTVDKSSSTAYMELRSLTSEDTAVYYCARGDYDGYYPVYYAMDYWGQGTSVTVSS VL: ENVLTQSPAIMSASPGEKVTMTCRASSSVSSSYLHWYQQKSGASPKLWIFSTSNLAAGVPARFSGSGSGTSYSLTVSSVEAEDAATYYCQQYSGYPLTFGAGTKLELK",
    "OD450 nm at 0.1 nM antibody, OD450": 0.65
  }
]
